Test system: COLO 205
Protocol notes: Cytotoxicity against human COLO205 cells assessed as growth inhibition at 10 uM after 48 hrs by SRB assay
Type: functional
Condition label: COLO 205, 48 h, read-out: GI
Readout kind: inhibition of growth at 10 µM (%)
A number alone suffices; assume %.

O=C(Nc1ccc(NC2=NS(=O)(=O)c3ccccc32)cc1)Nc1cccc(Br)c1 ... -11

Any idea what inhibition of growth at 10 µM came out for COc1ccc(NC(=O)Nc2ccc(NC3=NS(=O)(=O)c4ccccc43)cc2)cc1 on COLO 205?
-36

Now the compound O=C(Nc1ccc(OC2=NS(=O)(=O)c3ccccc32)cc1)Nc1ccccc1Cl
-17

Now the compound O=C(Nc1ccccc1)Nc1ccc(NC2=NS(=O)(=O)c3ccccc32)cc1
-19

Now the compound Cc1ccc(NC2=NS(=O)(=O)c3ccc(NC(=O)CCC(=O)O)cc32)cc1
-11

Now the compound O=C(Nc1ccc(Cl)cc1)Nc1ccc2c(c1)C(Nc1ccc(Cl)cc1Cl)=NS2(=O)=O
77

Now the compound O=C(Nc1ccccc1)Nc1ccc(OC2=NS(=O)(=O)c3ccccc32)cc1
-9

====

Test system: A549
Protocol notes: Cytotoxicity against human A549/ATCC cells assessed as growth inhibition at 10 uM after 48 hrs by SRB assay
Type: functional
Condition label: A549, 48 h, read-out: GI
Readout kind: inhibition of growth at 10 µM (%)
A number alone suffices; assume %.

// solved cases for inhibition of growth at 10 µM follow
O=C(Nc1ccc(NC2=NS(=O)(=O)c3ccccc32)cc1)Nc1cccc(Br)c1 ... 4
O=C(Nc1ccccc1)Nc1ccc(OC2=NS(=O)(=O)c3ccccc32)cc1 ... 22
COc1ccc(NC(=O)Nc2ccc(NC3=NS(=O)(=O)c4ccccc43)cc2)cc1 ... -10
O=C(Nc1ccccc1)Nc1ccc(NC2=NS(=O)(=O)c3ccccc32)cc1 ... 3
O=C(Nc1ccc(Cl)cc1)Nc1ccc2c(c1)C(Nc1ccc(Cl)cc1Cl)=NS2(=O)=O ... 69

What value of measured inhibition of growth at 10 µM is listed for O=C(Nc1ccc(OC2=NS(=O)(=O)c3ccccc32)cc1)Nc1ccccc1Cl ?
7

Now the compound Cc1ccc(NC2=NS(=O)(=O)c3ccc(NC(=O)CCC(=O)O)cc32)cc1
-7

====

System: SNB-75
Protocol notes: Cytotoxicity against human SNB75 cells assessed as growth inhibition at 10 uM after 48 hrs by SRB assay
Assay type: functional
Condition label: SNB-75, 48 h, read-out: GI
Label true when inhibition of growth at 10 µM is at or above 20%; otherwise label false.

Here are 5 molecules together with their reported answers.
COc1ccc(NC(=O)Nc2ccc(NC3=NS(=O)(=O)c4ccccc43)cc2)cc1 ... false
Cc1ccc(NC2=NS(=O)(=O)c3ccc(NC(=O)CCC(=O)O)cc32)cc1 ... true
O=C(Nc1ccc(NC2=NS(=O)(=O)c3ccccc32)cc1)Nc1cccc(Br)c1 ... false
O=C(Nc1ccccc1)Nc1ccc(OC2=NS(=O)(=O)c3ccccc32)cc1 ... true
O=C(Nc1ccccc1)Nc1ccc(NC2=NS(=O)(=O)c3ccccc32)cc1 ... false

Is reported inhibition of growth at 10 µM greater than or equal to 20% here: O=C(Nc1ccc(OC2=NS(=O)(=O)c3ccccc32)cc1)Nc1ccccc1Cl
false

Now the molecule O=C(Nc1ccc(Cl)cc1)Nc1ccc2c(c1)C(Nc1ccc(Cl)cc1Cl)=NS2(=O)=O
true

====

Test system: SK-OV-3
Protocol notes: Cytotoxicity against human SKOV3 cells assessed as growth inhibition at 10 uM after 48 hrs by SRB assay
Assay type: functional
Condition label: SK-OV-3, 48 h, read-out: GI
Examples of compounds with documented inhibition of growth at 10 µM follow.
The reply must contain the numeric value and, after it, the unit.

// solved cases for inhibition of growth at 10 µM follow
O=C(Nc1ccc(NC2=NS(=O)(=O)c3ccccc32)cc1)Nc1cccc(Br)c1 ... 4%
O=C(Nc1ccccc1)Nc1ccc(NC2=NS(=O)(=O)c3ccccc32)cc1 ... -7%
O=C(Nc1ccc(OC2=NS(=O)(=O)c3ccccc32)cc1)Nc1ccccc1Cl ... -7%
COc1ccc(NC(=O)Nc2ccc(NC3=NS(=O)(=O)c4ccccc43)cc2)cc1 ... -20%
Cc1ccc(NC2=NS(=O)(=O)c3ccc(NC(=O)CCC(=O)O)cc32)cc1 ... -11%

What value of measured inhibition of growth at 10 µM is listed for O=C(Nc1ccccc1)Nc1ccc(OC2=NS(=O)(=O)c3ccccc32)cc1 ?
-13%

Now the compound O=C(Nc1ccc(Cl)cc1)Nc1ccc2c(c1)C(Nc1ccc(Cl)cc1Cl)=NS2(=O)=O
15%

====

System: HOP-92
Protocol notes: Cytotoxicity against human HOP92 cells assessed as growth inhibition at 10 uM after 48 hrs by SRB assay
Assay type: functional
Condition label: HOP-92, 48 h, read-out: GI
Readout kind: inhibition of growth at 10 µM (%)
A number alone suffices; assume %.

// solved cases for inhibition of growth at 10 µM follow
COc1ccc(NC(=O)Nc2ccc(NC3=NS(=O)(=O)c4ccccc43)cc2)cc1 ... -13
O=C(Nc1ccccc1)Nc1ccc(OC2=NS(=O)(=O)c3ccccc32)cc1 ... 2
O=C(Nc1ccccc1)Nc1ccc(NC2=NS(=O)(=O)c3ccccc32)cc1 ... 1
Cc1ccc(NC2=NS(=O)(=O)c3ccc(NC(=O)CCC(=O)O)cc32)cc1 ... 9
O=C(Nc1ccc(NC2=NS(=O)(=O)c3ccccc32)cc1)Nc1cccc(Br)c1 ... 36

What value of measured inhibition of growth at 10 µM is listed for O=C(Nc1ccc(Cl)cc1)Nc1ccc2c(c1)C(Nc1ccc(Cl)cc1Cl)=NS2(=O)=O ?
82

Now the compound O=C(Nc1ccc(OC2=NS(=O)(=O)c3ccccc32)cc1)Nc1ccccc1Cl
-3

====

Examples of compounds with documented inhibition of growth at 10 µM follow.
System: NCI-H460
Protocol notes: Cytotoxicity against human NCI-H460 cells assessed as growth inhibition at 10 uM after 48 hrs by SRB assay
Assay type: functional
Condition label: NCI-H460, 48 h, read-out: GI
A number alone suffices; assume %.

// solved cases for inhibition of growth at 10 µM follow
O=C(Nc1ccc(NC2=NS(=O)(=O)c3ccccc32)cc1)Nc1cccc(Br)c1 ... 1
O=C(Nc1ccccc1)Nc1ccc(OC2=NS(=O)(=O)c3ccccc32)cc1 ... 21
O=C(Nc1ccc(OC2=NS(=O)(=O)c3ccccc32)cc1)Nc1ccccc1Cl ... -4
COc1ccc(NC(=O)Nc2ccc(NC3=NS(=O)(=O)c4ccccc43)cc2)cc1 ... 1
Cc1ccc(NC2=NS(=O)(=O)c3ccc(NC(=O)CCC(=O)O)cc32)cc1 ... -7
O=C(Nc1ccc(Cl)cc1)Nc1ccc2c(c1)C(Nc1ccc(Cl)cc1Cl)=NS2(=O)=O ... 87

Next item in the queue.
What value of measured inhibition of growth at 10 µM is listed for O=C(Nc1ccccc1)Nc1ccc(NC2=NS(=O)(=O)c3ccccc32)cc1 ?
-3

====

Protocol notes: Partition coefficient, log P of the compound
Type: physicochemical
Condition label: octanol/water
Readout kind: logP
// return just the number, without any unit appended

// solved cases for logP follow
O=C(Nc1ccc(Cl)cc1)Nc1ccc(OC2=NS(=O)(=O)c3ccccc32)cc1 ... 3.55
O=C(Nc1ccc(OC2=NS(=O)(=O)c3ccccc32)cc1)Nc1ccccc1Cl ... 3.55

What value of measured logP is listed for O=C(Nc1ccc(NC2=NS(=O)(=O)c3ccccc32)cc1)Nc1cccc(Br)c1 ?
2.24

====

Test system: OVCAR-5
Protocol notes: Cytotoxicity against human OVCAR5 cells assessed as growth inhibition at 10 uM after 48 hrs by SRB assay
Format: functional
Condition label: OVCAR-5, 48 h, read-out: GI
Examples of molecules with documented inhibition of growth at 10 µM follow.
A number alone suffices; assume %.

COc1ccc(NC(=O)Nc2ccc(NC3=NS(=O)(=O)c4ccccc43)cc2)cc1 ... -10

Any idea what inhibition of growth at 10 µM came out for Cc1ccc(NC2=NS(=O)(=O)c3ccc(NC(=O)CCC(=O)O)cc32)cc1 on OVCAR-5?
1

Now the molecule O=C(Nc1ccc(Cl)cc1)Nc1ccc2c(c1)C(Nc1ccc(Cl)cc1Cl)=NS2(=O)=O
40

Now the molecule O=C(Nc1ccc(OC2=NS(=O)(=O)c3ccccc32)cc1)Nc1ccccc1Cl
3

Now the molecule O=C(Nc1ccccc1)Nc1ccc(NC2=NS(=O)(=O)c3ccccc32)cc1
-2

Now the molecule O=C(Nc1ccccc1)Nc1ccc(OC2=NS(=O)(=O)c3ccccc32)cc1
13

Now the molecule O=C(Nc1ccc(NC2=NS(=O)(=O)c3ccccc32)cc1)Nc1cccc(Br)c1
13

====

Examples of compounds with documented inhibition of growth at 10 µM follow.
Test system: RXF 393
Protocol notes: Cytotoxicity against human RXF393 cells assessed as growth inhibition at 10 uM after 48 hrs by SRB assay
Format: functional
Condition label: RXF 393, 48 h, read-out: GI
A number alone suffices; assume %.

// solved cases for inhibition of growth at 10 µM follow
O=C(Nc1ccc(OC2=NS(=O)(=O)c3ccccc32)cc1)Nc1ccccc1Cl ... 10
COc1ccc(NC(=O)Nc2ccc(NC3=NS(=O)(=O)c4ccccc43)cc2)cc1 ... -2
O=C(Nc1ccccc1)Nc1ccc(NC2=NS(=O)(=O)c3ccccc32)cc1 ... -6

What value of measured inhibition of growth at 10 µM is listed for O=C(Nc1ccc(NC2=NS(=O)(=O)c3ccccc32)cc1)Nc1cccc(Br)c1 ?
35

Now the compound O=C(Nc1ccc(Cl)cc1)Nc1ccc2c(c1)C(Nc1ccc(Cl)cc1Cl)=NS2(=O)=O
15

Now the compound Cc1ccc(NC2=NS(=O)(=O)c3ccc(NC(=O)CCC(=O)O)cc32)cc1
-4

Now the compound O=C(Nc1ccccc1)Nc1ccc(OC2=NS(=O)(=O)c3ccccc32)cc1
5
